From: patent US20090202499A1

target: T1, purified HLA-B*5401 (human); assay: competition radioimmunoassay on purified HLA, radiolabeled standard peptide
T1 construct: Purified MHC class I molecule incubated with human b2m; also called B*54011
Quantity: IC50

Binder	IC50
AGRNMRRKL (Synthetic 9mer peptide of human telomerase reverse transcriptase) [hTRT peptide p966 (AGRNMRRKL)]	34.1 µM
LPSDFKTIL (Synthetic 9mer peptide of human telomerase reverse transcriptase) [hTRT peptide p1123 (LPSDFKTIL)]	19.9 µM
RPSFLLSSL (Synthetic 9mer peptide of human telomerase reverse transcriptase) [hTRT peptide p342 (RPSFLLSSL)]	12.6 µM
FVRACLRRL (Synthetic 9mer peptide of human telomerase reverse transcriptase) [hTRT peptide p464 (FVRACLRRL)]	18.8 µM

Now for the binder whose IC50 we want.
Request: Sample DPRRLVQLL (Synthetic 9mer peptide of human telomerase reverse transcriptase) [hTRT peptide p444 (DPRRLVQLL)] — what was its IC50?
Result: 21.9 µM
